- procedure_details: [3H]-Epibatidine Radioligand Binding Assay: Briefly, cultured cells at >80% confluence were removed from their flasks (80 cm^2) with a disposable cell scraper and placed in 10 mL of 50 mM Tris.HCl buffer (pH 7.4, 4 °C.). The cell suspension was centrifuged at 10,000×g for 5 min and the pellet was collected. The cell pellet was then homogenized in 10 mL buffer with a polytron homogenizer and centrifuged at 36,000 g for 10 min at 4 °C. The membrane pellet was resuspended in fresh buffer, and aliquots of the membrane preparation were used for binding assays. The concentration of [3H]-epibatidine used was ~500 pM for competition binding assays. […] Bound and free ligands were separated by vacuum filtration through Whatman GF/C filters treated with 0.5% polyethylenimine. The filter-retained radioactivity was measured by liquid scintillation counting. Specific binding was defined as the difference between total binding and nonspecific binding. Data from competition binding assays were analyzed using Prism 5 (GraphPad Software, San Diego, Calif.).
reported_property: Ki

Any idea what Ki was measured for CCCCC#Cc1cnc(C(F)(F)F)c(OC[C@@H]2CCN2)c1 ?
> 100 µM
